All figures here come from patent US20130109581A1.

# test.target: Abeta 1-42 globulomer, P05067
# assay.method.text: MPA bead capture, CSF + 1 ng/mL globulomer, Abeta immunoassay
recorded.endpoint: average RLU (42) (RLU)

>>> experimental_value("KKKFKF (modifications not checked) [link-KKKFKF]")
1650
>>> experimental_value("FKFKKK (HELM PEPTIDE1{[ac].F.K.F.K.K.K.[O=C(CCCCCN[*:1])[*:2]].[O=C(CCCCCN[*:1])[*:2]].C.[am]}$$$$V2.0; SMILES CC(=O)N[C@@H](Cc1ccccc1)C(=O)N[C@@H](CCCCN)C(=O)N[C@@H](Cc1ccccc1)C(=O)N[C@@H](CCCCN)C(=O)N[C@@H](CCCCN)C(=O)N[C@@H](CCCCN)C(=O)NCCCCCC(=O)NCCCCCC(=O)N[C@@H](CS)C(N)=O) [Ac-FKFKKK-Link (Ac-FKFKKK-Ahx-Ahx-Cys-NH2)]")
2000
>>> experimental_value("AAAKAA (modifications not checked)")
114
>>> experimental_value("AKKKKA (modifications not checked)")
322
>>> experimental_value("ANFFAHSS (modifications not checked)")
994
